B1: Adrenodoxin, mitochondrial, P00257 (parent)
chain: MAARLLRVASAALGDTAGRWRLLARPRAGAGGLRGSRGPGLGGGAVATRTLSVSGRAQSSSEDKITVHFINRDGETLTTKGKIGDSLLDVVVQNNLDIDGFGACEGTLACSTCHLIFEQHIFEKLEAITDEENDMLDLAYGLTDRSRLGCQICLTKAMDNMTVRVPDAVSDARESIDMGMNSSKIE

Variants of: B1
condition.details: Bos taurus; pH 8.5; Thermal; CD; Glycine; reversible: YES; structure 1AYF; whole UniProt chain shown
Form field: change of melting temperature, mutant - wild type (higher = more stable) (one value per entry).

Consider the following illustrative entries.
{"variant.code": "F117W", "result": "-14.6 °C"}
{"variant.code": "F69W", "result": "-5.3 °C"}
{"variant.code": "F101W", "result": "-6.5 °C"}

Need change of melting temperature, mutant - wild type (higher = more stable), item `F122W`
-3.2 °C

Check `Y140W` too.
-0.7 °C
